Source listed as ChEMBL document CHEMBL4689842.

Tested on: Fibroblast
test-name: Multiplex assay against human fibroblast
Type: toxicity, cell-based
settings: 48 h, 10 µM, compound concentration 10 uM, replicate 2
I'd appreciate it if you marked entries condition met when Population Healthy Nuclei (%) is lower than 60% and condition not met when it is not.

# compound, group
rows = [
    ("Cc1cc(C)cc(-c2cnc3cc(Cl)c(-c4cccc(O)c4)cc3c2OCCCN)c1", "condition met"),
    ("c1cn2cc(-c3ccc4cn[nH]c4c3)nc(Nc3ccc(N4CCOCC4)cc3)c2n1 [ENTOSPLETINIB]", "condition met"),
    ("C[C@@]1(C(=O)Nc2ccc(F)nc2)CCCN1c1nc(Nc2cc(C3CC3)n[nH]2)c2cccn2n1 [BMS-754807]", "condition met"),
    ("C=CC(=O)Nc1ccc2ncnc(Nc3ccc(OCc4cccc(F)c4)c(Cl)c3)c2c1.Cc1ccc(S(=O)(=O)O)cc1", "condition not met"),
    ("OC1(c2ccc(Cl)cc2)CCN(Cc2c[nH]c3ccccc23)CC1", "condition met"),
    ("CNc1nc(NCc2ccc(NS(C)(=O)=O)cc2Cl)cc(-c2ccccn2)n1", "condition not met"),
    ("COc1ncc(-c2ccc3nccc(-c4ccnnc4)c3c2)cc1NS(=O)(=O)c1ccc(F)cc1F [OMIPALISIB]", "condition not met"),
    ("CC(C)(O)CNc1ncc(-c2ccnc(Nc3ccnc(Cl)c3)n2)c(CC2CC2)n1", "condition met"),
    ("Cn1cc(-c2[nH]c3cc(NC(=O)[C@H](N)C4CCCCC4)cc4c3c2C=NNC4=O)cn1", "condition met"),
    ("CN(C)C(=O)N[C@H]1CC[C@H](CCN2CCN(c3cccc(Cl)c3Cl)CC2)CC1.Cl [CARIPRAZINE HYDROCHLORIDE]", "condition not met"),
    ("CN(C)CC#Cc1ccc(OCCCc2sc(N3CCc4cccc(C(=O)Nc5nc6ccccc6s5)c4C3)nc2C(=O)O)c(F)c1 [A-1155463]", "condition met"),
    ("COc1cc2nccc(Oc3ccc(NC(=O)Nc4cc(C)on4)c(Cl)c3)c2cc1OC.O", "condition met"),
    ("COc1cccc([C@@H](C)NCCCc2ccccc2Cl)c1.Cl [TECALCET HYDROCHLORIDE]", "condition met"),
    ("Cc1[nH]c(/C=C2\\C(=O)Nc3ccc(S(=O)(=O)N(C)c4cccc(Cl)c4)cc32)c(C)c1C(=O)N1CCN(C)CC1", "condition not met"),
    ("CN1CCCC(n2nc(Cc3ccc(Cl)cc3)c3ccccc3c2=O)CC1.Cl (stereo unspecified) [AZELASTINE HYDROCHLORIDE]", "condition met"),
    ("CN1CCN(c2ccc(OC(F)(F)F)c(Nc3ncc4c(n3)-c3c(c(C(N)=O)nn3CCO)CC4)c2)CC1 [ONVANSERTIB]", "condition met"),
]

* * *

As shown below, each of these molecules has a reported Population Mitochondria Different-Phenotype (%) value.
System: Fibroblast
test-name: Multiplex assay against human fibroblast
Format: toxicity, cell-based
settings: 24 h, 10 µM, compound concentration 10 uM, replicate 1
experimental-readout: Population Mitochondria Different-Phenotype (%)

# molecule, value-unit, numeric-result
measured = [
    ("CN(C)CC#Cc1ccc(OCCCc2sc(N3CCc4cccc(C(=O)Nc5nc6ccccc6s5)c4C3)nc2C(=O)O)c(F)c1", "%", 2),
    ("CC(C)NCC(O)COc1ccc(CCOCC2CC2)cc1.Cl (stereo not drawn) [BETAXOLOL HYDROCHLORIDE]", "%", 21),
    ("CC(C)(O)CNc1ncc(-c2ccnc(Nc3ccnc(Cl)c3)n2)c(CC2CC2)n1", "%", 60),
]

* * *

System: Fibroblast
test-name: Multiplex assay against human fibroblast
Assay type: toxicity, cell-based
settings: 48 h, 10 µM, compound concentration 10 uM, replicate 1
As shown below, each of these compounds has a reported Population Membrane Permeable-Phenotype (%) value.
experimental-readout: Population Membrane Permeable-Phenotype (%)

# compound, system, result
measured = [
    ("C[C@@]1(C(=O)Nc2ccc(F)nc2)CCCN1c1nc(Nc2cc(C3CC3)n[nH]2)c2cccn2n1", "Fibroblast", "23%"),
    ("CCn1c(=O)c(-c2ccc(Cl)cc2Cl)cc2cnc(Nc3ccc(N4CCNCC4)c(F)c3)nc21", "Fibroblast", "30%"),
    ("CN(C)CC#Cc1ccc(OCCCc2sc(N3CCc4cccc(C(=O)Nc5nc6ccccc6s5)c4C3)nc2C(=O)O)c(F)c1", "Fibroblast", "50%"),
    ("COc1cc(-n2cnc3cc(-c4ccc(Cl)cc4)sc3c2=O)ccc1OCCN1CCCC1", "Fibroblast", "23%"),
    ("CC(C)NCC(O)COc1ccc(CCOCC2CC2)cc1.Cl (stereo not drawn) [BETAXOLOL HYDROCHLORIDE]", "Fibroblast", "22%"),
    ("Cc1c(-c2ccc(O)cc2)n(Cc2ccc(OCCN3CCCCCC3)cc2)c2ccc(O)cc12", "Fibroblast", "33%"),
    ("CN(C)C(=O)/C(C#N)=C/c1ccc(-c2nc3cnc4[nH]ccc4c3n2C2CCCCC2)o1", "Fibroblast", "30%"),
    ("OC1(c2ccc(Cl)cc2)CCN(Cc2c[nH]c3ccccc23)CC1", "Fibroblast", "16%"),
]

* * *

Test system: HEK-293T
test-name: Multiplex assay against HEK293T;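 for Population Tubulin-Different-Phenotype (%): share of the cells with healthy nuclei that show this phenotype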
Format: toxicity, cell-based
settings: human, 48 h, 1 µM, compound concentration 1 uM, replicate 2
As shown below, each of these compounds has a reported Population Tubulin-Different-Phenotype (%) value.
experimental-readout: Population Tubulin-Different-Phenotype (%)

# compound, numeric-result
rows = [
    ("C=CC(=O)Nc1ccc2ncnc(Nc3ccc(OCc4cccc(F)c4)c(Cl)c3)c2c1.Cc1ccc(S(=O)(=O)O)cc1", 23),
    ("CC(C)NCC(O)COc1ccc(CCOCC2CC2)cc1.Cl (configuration not stated) [BETAXOLOL HYDROCHLORIDE]", 22),
    ("CNc1nc(NCc2ccc(NS(C)(=O)=O)cc2Cl)cc(-c2ccccn2)n1", 26),
    ("CN1CCN(CCOc2cc(OC3CCOCC3)c3c(Nc4c(Cl)ccc5c4OCO5)ncnc3c2)CC1", 55),
    ("COc1cc(-n2cnc3cc(-c4ccc(Cl)cc4)sc3c2=O)ccc1OCCN1CCCC1", 57),
    ("CN(C)C(=O)/C(C#N)=C/c1ccc(-c2nc3cnc4[nH]ccc4c3n2C2CCCCC2)o1", 21),
    ("CN1CCN(c2ccc(OC(F)(F)F)c(Nc3ncc4c(n3)-c3c(c(C(N)=O)nn3CCO)CC4)c2)CC1", 59),
]

* * *

Tested on: Fibroblast
test-name: Multiplex assay against human fibroblast
Assay type: toxicity, cell-based
settings: 24 h, 10 µM, compound concentration 10 uM, replicate 2

# compound, Total Cell Count
rows = [
    ("CN(C)C(=O)N[C@H]1CC[C@H](CCN2CCN(c3cccc(Cl)c3Cl)CC2)CC1.Cl [CARIPRAZINE HYDROCHLORIDE]", 87),
    ("CC(C)NCC(O)COc1ccc(CCOCC2CC2)cc1.Cl (stereo not drawn) [BETAXOLOL HYDROCHLORIDE]", 106),
    ("CN(C)CC#Cc1ccc(OCCCc2sc(N3CCc4cccc(C(=O)Nc5nc6ccccc6s5)c4C3)nc2C(=O)O)c(F)c1 [A-1155463]", 135),
    ("O=C1NCN(c2ccccc2)C12CCN(CCCOc1ccc(F)cc1)CC2 [SPIRAMIDE]", 118),
    ("Cl.N#Cc1ccc2[nH]cc(CCCCN3CCN(c4ccc5oc(C(N)=O)cc5c4)CC3)c2c1 [VILAZODONE HYDROCHLORIDE]", 79),
    ("c1cn2cc(-c3ccc4cn[nH]c4c3)nc(Nc3ccc(N4CCOCC4)cc3)c2n1 [ENTOSPLETINIB]", 65),
    ("CC(C)(O)CNc1ncc(-c2ccnc(Nc3ccnc(Cl)c3)n2)c(CC2CC2)n1", 105),
    ("OC1(c2ccc(Cl)cc2)CCN(Cc2c[nH]c3ccccc23)CC1", 85),
]

* * *

As shown below, each of these molecules has a reported Population Hoechst High Intensity Objects (%) value.
Test system: HEK-293T
test-name: Multiplex assay against HEK293T
Assay type: toxicity, cell-based
settings: human, 24 h, 10 µM, compound concentration 10 uM, replicate 2
experimental-readout: Population Hoechst High Intensity Objects (%)

# molecule, numeric-result
measured = [
    ("CN1C(=O)c2sccc2N(C)c2nc(Nc3ccc(S(N)(=O)=O)cc3)ncc21", 2),
    ("Cc1cc(C)cc(-c2cnc3cc(Cl)c(-c4cccc(O)c4)cc3c2OCCCN)c1", 8),
    ("Cn1cc(-c2[nH]c3cc(NC(=O)[C@H](N)C4CCCCC4)cc4c3c2C=NNC4=O)cn1", 12),
    ("Cc1c(-c2ccc(O)cc2)n(Cc2ccc(OCCN3CCCCCC3)cc2)c2ccc(O)cc12 [BAZEDOXIFENE]", 8),
    ("Cc1nc(Nc2n[nH]c3c2CN(C(=O)N[C@H](CN(C)C)c2ccccc2)C3(C)C)c2sccc2n1 [PF-03758309]", 7),
]
